tested system: mGluR2 receptor (metabotropic glutamate receptor 2) (Homo sapiens, UniProt Q14416)
Construct: expressed in transfected cells
Sequence (Q14416 19-872, species assumed): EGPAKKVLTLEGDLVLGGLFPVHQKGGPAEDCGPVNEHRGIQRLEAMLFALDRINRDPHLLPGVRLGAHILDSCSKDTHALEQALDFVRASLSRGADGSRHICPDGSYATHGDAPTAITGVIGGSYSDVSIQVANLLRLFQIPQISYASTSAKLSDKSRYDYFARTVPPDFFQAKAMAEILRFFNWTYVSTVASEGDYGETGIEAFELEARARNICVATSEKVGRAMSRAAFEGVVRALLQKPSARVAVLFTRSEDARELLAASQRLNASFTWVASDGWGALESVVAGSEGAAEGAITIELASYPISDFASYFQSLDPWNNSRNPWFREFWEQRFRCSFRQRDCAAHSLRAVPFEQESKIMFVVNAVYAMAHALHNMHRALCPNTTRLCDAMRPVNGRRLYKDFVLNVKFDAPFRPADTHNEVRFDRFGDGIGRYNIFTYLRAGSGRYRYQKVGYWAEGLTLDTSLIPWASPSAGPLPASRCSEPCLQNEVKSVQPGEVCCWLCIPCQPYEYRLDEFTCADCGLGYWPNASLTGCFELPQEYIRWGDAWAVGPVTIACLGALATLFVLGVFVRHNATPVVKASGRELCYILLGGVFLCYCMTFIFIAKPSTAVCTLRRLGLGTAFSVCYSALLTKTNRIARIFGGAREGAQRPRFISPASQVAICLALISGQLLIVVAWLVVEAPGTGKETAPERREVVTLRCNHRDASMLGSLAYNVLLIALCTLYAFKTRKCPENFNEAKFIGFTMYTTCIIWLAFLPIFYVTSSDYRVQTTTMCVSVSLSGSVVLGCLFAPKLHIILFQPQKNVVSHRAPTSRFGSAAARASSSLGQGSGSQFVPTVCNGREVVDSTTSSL
experiment: mGluR2 Potentiator Screen, FLIPR, EC10-EC20 glutamate challenge
Assay type: cell-based
assay setup: read-out: EC50
endpoint: pEC50
Scale explanation: pEC50 corresponds to minus log10 of a concentration expressed in moles per litre.

// solved cases for pEC50 follow
>>> measured_value("COc1cc(F)ccc1C1CCN(Cc2nc3ccccc3n2C)CC1")
7.20
>>> measured_value("Cn1c(CN2CCC(c3ccccc3C(F)(F)F)CC2)nc2cc(C#N)ccc21")
6.65

## Input Param item = Cn1c(CN2CCC(c3ccc(C(F)(F)F)cc3)CC2)nc2c(F)cccc21 ; retrieve measured pEC50.
## Output 7.36

## Input Fill in the blank: the reported pEC50 of CCOc1ccc(Cl)cc1C1CCN(Cc2nc3ccccc3n2C2CC2)CC1 is ____.
## Output 6.00

## Input Return reported pEC50; argument: Cn1c(CN2CCC(c3ccc(F)cc3)CC2)nc2cc(C#N)ccc21
## Output 6.52

----------
tested system: mGluR2 receptor (metabotropic glutamate receptor 2) (Homo sapiens)
Construct: expressed in transfected cells
experiment: mGluR2 Potentiator Screen, FLIPR, EC10-EC20 glutamate challenge
Type: cell-based
assay setup: read-out: EC50
endpoint: EC50 (nM)
All answers are understood in nM, so give the number only.

>>> measured_value("Cn1c(CN2CCC(c3ccccc3OCC3CCCC3)CC2)nc2ccccc21")
2310

Turning to the following compound.
## Input What measured EC50 goes with COc1ccccc1C1CCN(Cc2nc3ccccc3n2CCF)CC1 ?
## Output 146

----------
tested system: mGluR2 receptor (metabotropic glutamate receptor 2) (Homo sapiens)
Construct: expressed in transfected cells
experiment: mGluR2 Potentiator Screen, FLIPR, EC10-EC20 glutamate challenge
Format: cell-based
assay setup: read-out: EC50
endpoint: pEC50
pEC50 field: float, defined as -log10 of concentration (mol/L).

>>> measured_value("Cn1c(CN2CCC(c3ccc(C(F)(F)F)cc3)CC2)nc2cc(F)ccc21 [compound 350]")
6.83
>>> measured_value("COc1ccccc1[C@H]1CCN(Cc2nc3ccccc3n2CCF)C[C@H]1C (relative stereo) [compound 339]")
6.22
>>> measured_value("CCC(CC)CN1CC2(CCN(Cc3nc4ccccc4n3C)CC2)c2cc(C)cc(C)c21 [compound 126]")
5.22

Let's switch to this compound now.
## Input Kindly state the measured pEC50 obtained for Cc1cccc(NC(=O)c2cccc(C3CCN(Cc4nc5ccccc5n4C)CC3)c2)n1 [compound 435] with mGluR2 receptor (metabotropic glutamate receptor 2) (Homo sapiens).
## Output 5.48

----------
tested system: mGluR2 receptor (metabotropic glutamate receptor 2) (Homo sapiens)
Construct: expressed in transfected cells
experiment: mGluR2 Potentiator Screen, FLIPR, EC10-EC20 glutamate challenge
Assay type: cell-based
assay setup: read-out: EC50
endpoint: EC50 (nM)
Return type: number; implicit unit nM.

Worked examples follow.
>>> measured_value("COc1cccc(F)c1C1CCN(Cc2nc3ccccc3n2C)CC1")
81
>>> measured_value("COc1ccccc1C1CCN(Cc2nc3c(F)cccc3n2C)CC1")
21.1
>>> measured_value("FCCn1c(CN2CCC(c3ccccc3C(F)(F)F)CC2)nc2ccccc21")
1260

Attention now shifts to the item below.
## Input Form field: reported EC50 of Cn1c(CN2CCC3(CC2)CN(C(=O)COc2ccccc2)c2ccccc23)nc2ccccc21
## Output 508
